Attribution: paper PMC5540273

System: LIMK2
Condition Info: concentration: 1 μM, replicates: in singlicate; n = 1;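 further: KINOMEscan kinase panel screen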
Readout Type: %Inh (%)

{"Smiles Repr": "Cn1ccc2ncnc(Nc3ccc(Oc4cccc(Cl)c4)c(Cl)c3)c21", "Readout Type": "%Inh", "Experimental Value": 6}
{"Smiles Repr": "O=C(Nc1n[nH]c2nc(-c3ccco3)c(Br)cc12)c1ccc(CN2CCCC2)cc1.O=C(O)[C@H](O)[C@@H](O)C(=O)O", "Readout Type": "%Inh", "Experimental Value": 0}
{"Smiles Repr": "Nc1nc(-c2ccccn2)c(-c2ccnc3ccccc23)s1", "Readout Type": "%Inh", "Experimental Value": 9}
{"Smiles Repr": "CSc1ccc(NC2=C(c3ccccc3Cl)C(=O)NC2=O)cc1", "Readout Type": "%Inh", "Experimental Value": 7}
{"Smiles Repr": "NC(=O)c1sc(-n2cnc3ccccc32)cc1OCc1ccccc1F", "Readout Type": "%Inh", "Experimental Value": 20}

----------
Measured %Inh values are reported for all entries that follow.
Tested on: DAPK1
Condition Info: concentration: 1 μM, replicates: in singlicate; n = 1

{"Compound": "NC(=O)c1sc(-n2cnc3ccccc32)cc1OCc1ccccc1F [GSK1024306]", "%Inh": "3%"}
{"Compound": "FC(F)(F)c1ccc(-c2nn3ncccc3c2-c2ccnc(Nc3cccc(C(F)(F)F)c3)n2)cc1 [GW828205]", "%Inh": "0%"}
{"Compound": "CNc1nccc(-c2c(-c3ccc(F)cc3)ncn2CCCN2CCOCC2)n1 [SB-222516]", "%Inh": "0%"}
{"Compound": "CNc1nccc(-c2c(-c3ccc(F)cc3)ncn2C2CCN(C)CC2)n1 [SB-222903]", "%Inh": "0%"}
{"Compound": "COc1ccc(NC(=O)c2ccc(-c3cc(-c4nnc(C)o4)ccc3C)cc2)cc1 [GW595885]", "%Inh": "0%"}
{"Compound": "CSc1nn2c(=O)cc(N3CCOCC3)nc2n1Cc1cccc(Cl)c1Cl [GSK2347225]", "%Inh": "14%"}
{"Compound": "CC(=O)Nc1n[nH]c2ncc(-c3ccccc3)cc12 [SB-548492]", "%Inh": "100%"}
{"Compound": "FC(F)(F)c1ccc(-c2cc(-c3c[nH]nc3-c3ccccn3)ccn2)cc1 [GW599550]", "%Inh": "9%"}
{"Compound": "Cn1ccc2ncnc(Nc3ccc(Oc4cccc(Cl)c4)c(Cl)c3)c21", "%Inh": "18%"}
{"Compound": "COC(=O)c1c(-c2ccccc2)c2cc(Cl)ccc2c(=O)n1Cc1ccc(S(C)(=O)=O)cc1", "%Inh": "21%"}
{"Compound": "O=C(Nc1ccccc1F)NC1CCN(c2ccnc(Nc3ccc(F)cc3)n2)C1 (centres unmarked) [GSK1379722]", "%Inh": "0%"}
{"Compound": "Cc1ccc(C)c(NC(=O)NCCNc2ccnc(Nc3ccc(F)cc3)n2)c1 [GSK1379878]", "%Inh": "0%"}
{"Compound": "CS(=O)(=O)CCNCc1nc(-c2ccc3ncnc(Nc4ccc(OCc5cccc(F)c5)c(Cl)c4)c3c2)cs1.Cl [GW583340]", "%Inh": "25%"}
{"Compound": "CCCc1ccc(S(=O)(=O)NC2CCN(c3ccnc(Nc4ccc(OC)cc4)n3)C2)cc1 (centres unmarked) [GSK1379737]", "%Inh": "0%"}
{"Compound": "Clc1cccc(-c2nc(Nc3ccncc3)c3ccccc3n2)c1 [GW873004]", "%Inh": "0%"}
{"Compound": "N#Cc1ccc(Oc2ccc(Nc3ncnc4cc[nH]c34)cc2Cl)cc1", "%Inh": "30%"}
{"Compound": "Cn1ccc2ncnc(Oc3ccc(NC(=O)Nc4cccnc4)c(Cl)c3)c21", "%Inh": "7%"}
{"Compound": "Cl.Cl.c1ccc(-c2cc3ccncc3cc2OC2CCNCC2)cc1 [GSK1122999]", "%Inh": "93.5%"}
{"Compound": "CCc1nc(-c2cccc(N(C)S(=O)(=O)c3ccccc3)c2)c(-c2ccnc(Nc3ccc(N4CCN(C(C)=O)CC4)nc3)n2)s1 [GSK1645895]", "%Inh": "21%"}
{"Compound": "O=C(NCCCN1CCCC1=O)c1cnc(NCc2cc(Cl)ccc2Cl)nc1NC1CCNCC1", "%Inh": "14%"}
{"Compound": "Fc1ccc(Nc2nccc(-c3c(-c4ccc(Cl)cc4)nn4ncccc34)n2)cc1F [GW829058]", "%Inh": "1%"}
{"Compound": "Cc1ccc(NC(=O)c2cccc(C#N)c2)cc1-c1ccc(C(=O)Nc2ccncc2)cc1 [GSK1398463]", "%Inh": "0%"}
{"Compound": "Cl.c1ccc(Cn2ncc3cc(Nc4ncnc5ccccc45)ccc32)cc1 [GW273749]", "%Inh": "5%"}
{"Compound": "COc1cc2c(Nc3cccc(NC(=O)c4ccccc4)c3)ncnc2cc1OCCCN1CCOCC1 [GSK223810]", "%Inh": "0%"}
{"Compound": "Cl.c1ccc(Cn2ccc3cc(Nc4ncnc5ccccc45)ccc32)cc1 [GW275568]", "%Inh": "21%"}
{"Compound": "C[C@H]1CC[C@@H](C(=O)Nc2ccccc2)CN1c1cc(-c2ccc3c(N)n[nH]c3c2)nc(N)n1 [GSK2283293]", "%Inh": "7%"}
{"Compound": "Nc1nc(-c2cccnc2)c(-c2ccnc3ccccc23)s1 [GW684083]", "%Inh": "0%"}
{"Compound": "CS(=O)(=O)CCNCc1ccc(-c2ccc3ncnc(Nc4ccc(OCc5ccccc5)c(Cl)c4)c3c2)o1.Cl [GW574783]", "%Inh": "0%"}
{"Compound": "c1ccc(-c2ccc3c(-c4ccnc(Nc5ccc6c(c5)OCCO6)n4)cnn3n2)cc1 [GW818941]", "%Inh": "0%"}
